The molecules listed here are annotated with their Activity.
Test system: Mus musculus
assay_method_text: Toxicity in mouse S180 cells allografted mouse assessed as brain weight at 1 umol/kg, ip for 7 consecutive days measured 24 hrs after last dose (reference value: 0.30 +/- 0.02 g)
Format: organism-based, CCRF S-180
stated_conditions: in vivo
Numbers only; they are read as g.

Sample records with Activity:
[
  {
    "molecule_smiles": "O=C(CNC(=O)[C@H](Cc1c[nH]c2ccccc12)NC(=O)[C@H](Cc1c[nH]c2ccccc12)NC(=O)c1cc2ccc(O)cc2oc1=O)OCc1ccccc1",
    "uom": "g",
    "Activity": 0.29
  },
  {
    "molecule_smiles": "O=C(N[C@@H](Cc1c[nH]c2ccccc12)C(=O)N[C@@H](Cc1c[nH]c2ccccc12)C(=O)N[C@@H](Cc1c[nH]c2ccccc12)C(=O)OCc1ccccc1)c1cc2ccc(O)cc2oc1=O",
    "uom": "g",
    "Activity": 0.25
  }
]

Moving on to the next molecule.
Quick check: Activity of `C[C@@H](O)[C@H](NC(=O)[C@H](Cc1c[nH]c2ccccc12)NC(=O)[C@H](Cc1c[nH]c2ccccc12)NC(=O)c1cc2ccc(O)cc2oc1=O)C(=O)OCc1ccccc1` ?
0.29

* * *

Tested on: Mus musculus
assay_method_text: Toxicity in mouse S180 cells allografted mouse assessed as brain weight at 1 umol/kg, ip for 7 consecutive days measured 24 hrs after last dose (reference value: 0.30 +/- 0.02 g)
Type: organism-based, CCRF S-180
stated_conditions: in vivo
quantity_name: Activity (g)
Numbers only; they are read as g.

Sample records with Activity:
[
  {
    "molecule_smiles": "CC[C@H](C)[C@H](NC(=O)[C@H](Cc1c[nH]c2ccccc12)NC(=O)[C@H](Cc1c[nH]c2ccccc12)NC(=O)c1cc2ccc(O)cc2oc1=O)C(=O)OCc1ccccc1",
    "quantity_name": "Activity",
    "measurement": 0.24
  },
  {
    "molecule_smiles": "O=C(N[C@@H](Cc1c[nH]c2ccccc12)C(=O)N[C@@H](Cc1c[nH]c2ccccc12)C(=O)N[C@@H](Cc1ccc(O)cc1)C(=O)OCc1ccccc1)c1cc2ccc(O)cc2oc1=O",
    "quantity_name": "Activity",
    "measurement": 0.28
  }
]

Moving on to the next compound.
Quick check: Activity of `O=C(N[C@@H](Cc1c[nH]c2ccccc12)C(=O)N[C@@H](Cc1c[nH]c2ccccc12)C(=O)N[C@@H](Cc1ccccc1)C(=O)OCc1ccccc1)c1cc2ccc(O)cc2oc1=O` ?
0.27

* * *

The compounds listed here are annotated with their Activity.
System: Mus musculus
assay_method_text: Toxicity in mouse S180 cells allografted mouse assessed as liver weight at 1 umol/kg, ip for 7 consecutive days measured 24 hrs after last dose (reference value: 1.84 +/- 0.32 g)
Assay type: organism-based, CCRF S-180
stated_conditions: in vivo
Numbers only; they are read as g.

[
  {
    "molecule_smiles": "O=C(N[C@@H](Cc1c[nH]c2ccccc12)C(=O)N[C@@H](Cc1c[nH]c2ccccc12)C(=O)N1CCC[C@H]1C(=O)OCc1ccccc1)c1cc2ccc(O)cc2oc1=O",
    "Activity, g": 1.87
  },
  {
    "molecule_smiles": "O=C(N[C@@H](Cc1c[nH]c2ccccc12)C(=O)N[C@@H](Cc1c[nH]c2ccccc12)C(=O)N[C@@H](CO)C(=O)OCc1ccccc1)c1cc2ccc(O)cc2oc1=O",
    "Activity, g": 1.9
  }
]

Moving on to the next compound.
Quick check: Activity of `O=C(N[C@@H](Cc1c[nH]c2ccccc12)C(=O)N[C@@H](Cc1c[nH]c2ccccc12)C(=O)OCc1ccccc1)c1cc2ccc(O)cc2oc1=O` ?
1.73
